- tested on: Neuromedin-K receptor (Homo sapiens)
- Sequence (P29371 whole entry): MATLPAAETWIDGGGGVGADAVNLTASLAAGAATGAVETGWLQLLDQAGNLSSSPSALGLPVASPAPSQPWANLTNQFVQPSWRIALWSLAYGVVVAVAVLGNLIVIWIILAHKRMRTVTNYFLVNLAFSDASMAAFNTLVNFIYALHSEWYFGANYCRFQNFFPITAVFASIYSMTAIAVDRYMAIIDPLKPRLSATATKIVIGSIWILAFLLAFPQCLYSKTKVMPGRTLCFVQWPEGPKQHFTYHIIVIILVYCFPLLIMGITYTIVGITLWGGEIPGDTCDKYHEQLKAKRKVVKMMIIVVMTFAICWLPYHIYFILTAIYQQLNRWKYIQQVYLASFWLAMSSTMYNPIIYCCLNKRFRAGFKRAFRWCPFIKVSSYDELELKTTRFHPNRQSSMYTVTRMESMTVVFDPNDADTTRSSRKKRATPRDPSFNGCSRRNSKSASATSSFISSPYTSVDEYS
- experiment notes: Antagonist activity at human NK3 receptor expressed in CHO cells assessed as inhibition of senktide-induced calcium flux by FLIPR assay
pEC50: −log10 of the molar value.
measurement label: pEC50

CC[C@H](NC(=O)c1c(CSC)c(-c2ccccc2)nc2ccccc12)c1ccccc1 (mixture of isomers): 7.46
CC[C@H](NC(=O)c1c(C[S@+](C)[O-])c(-c2ccccc2)nc2ccccc12)c1ccccc1: 8.28
CC[C@H](NC(=O)c1c([S+](C)[O-])c(-c2ccccc2)nc2cc(CN(C)C)ccc12)c1ccccc1 (mixture of isomers): 7.06
CC[C@H](NC(=O)c1c([S+](C)[O-])c(-c2ccccc2)nc2ccccc12)c1ccccn1 (mixture of isomers; 35a): 7.11
CC[C@H](NC(=O)c1c([S+](C)[O-])c(-c2ccccc2)nc2ccccc12)c1cccnc1 (mixture of isomers): 7.13
CC[C@H](NC(=O)c1c([S+](C)[O-])c(-c2ccc(F)cc2)nc2ccccc12)c1ccccc1 (mixture of isomers): 7.32
CC[C@H](NC(=O)c1c([S+](C)[O-])c(-c2ccccc2)nc2cc(Br)ccc12)c1ccccc1 (mixture of isomers): 8.29
CC[C@H](NC(=O)c1c([S+](C)[O-])c(-c2cccs2)nc2ccccc12)c1ccccc1 (mixture of isomers): 8.77
CC[C@H](NC(=O)c1c([S@+](C)[O-])c(-c2ccccc2)nc2ccccc12)c1ccccc1: 8.43
CC[C@H](NC(=O)c1c(CC[S+](C)[O-])c(-c2ccccc2)nc2ccccc12)c1ccccc1 (mixture of isomers): 8.48

P. CC[C@H](NC(=O)c1c([S+](C)[O-])c(-c2ccccc2)nc2ccccc12)c1ccccc1 (mixture of isomers)
Q. CC[C@H](NC(=O)c1c([S+]([O-])CC(=O)N(C)C)c(-c2ccccc2)nc2ccccc12)c1ccccc1 (mixture of isomers)
R. CC[C@H](NC(=O)c1c([S+](C)[O-])c(-c2ccccc2)nc2ccccc12)c1ccccc1 (stereo in doubt; 2b)
S. CC[C@H](NC(=O)c1c(CS(C)(=O)=O)c(-c2ccccc2)nc2ccccc12)c1ccccc1 (mixture of isomers)
T. CC[C@H](NC(=O)c1c([S+](C)[O-])c(-c2cc[nH]n2)nc2ccccc12)c1ccccc1 (mixture of isomers)
Order the entries by their reported pEC50, beginning at the minimum. Response format: the labels, sorted as the prompt asks.
T, R, Q, P, S

I. CC[C@H](NC(=O)c1c([S+](C)[O-])c(-c2ccccc2)nc2c(F)cccc12)c1ccccc1 (mixture of isomers)
II. CC[C@H](NC(=O)c1c([S+](C)[O-])c(-c2cncs2)nc2ccccc12)c1ccccc1 (mixture of isomers)
Consider I and II . Which of these has its pEC50 at a higher number? Output the label that corresponds to your choice.
I

P. CC[C@H](NC(=O)c1c([S+](C)[O-])c(-c2ccccn2)nc2ccccc12)c1ccccc1 (mixture of isomers)
Q. CC[C@H](NC(=O)c1c([S+](C)[O-])c(-c2ccccc2F)nc2ccccc12)c1ccccc1 (mixture of isomers)
Quick one: lower pEC50, P or Q ? Output the label that corresponds to your choice.
P
(P: 5.95, Q: 7.09)

P. CC[C@H](NC(=O)c1c([S+]([O-])CC)c(-c2ccccc2)nc2ccccc12)c1ccccc1 (mixture of isomers)
Q. CC[C@H](NC(=O)c1c([S+](C)[O-])c(-c2ccccc2)nc2cc(F)ccc12)c1ccccc1 (mixture of isomers)
Consider P and Q . Which of these has its pEC50 at a higher number? Output the label that corresponds to your choice.
P

---

- tested on: Neuromedin-K receptor (Homo sapiens, UniProt P29371)
- experiment notes: Antagonist activity at human NK3 receptor expressed in CHO cells assessed as inhibition of senktide-induced calcium flux by FLIPR assay
pEC50: −log10 of the molar value.
pEC50 values for the compounds below.

Below: 2 compounds and their reported pEC50.
CC[C@H](NC(=O)c1c([S+](C)[O-])c(-c2ccccc2)nc2cc(C)ccc12)c1ccccc1 (mixture of isomers): 8.44
C[S+]([O-])c1c(-c2ccccc2)nc2ccccc2c1C(=O)N[C@H](c1ccncc1)C1CC1 (stereo in doubt; 33b): < 5.03

// pEC50 lookup, key: C[S+]([O-])c1c(-c2ccccc2)nc2ccccc2c1C(=O)N[C@H](c1ccncc1)C1CC1 (mixture of isomers)
< 5.00
